TARGET_UNDER_TEST: Estrogen receptor (Homo sapiens)
Sequence (P03372 whole entry, the tested form may be a part): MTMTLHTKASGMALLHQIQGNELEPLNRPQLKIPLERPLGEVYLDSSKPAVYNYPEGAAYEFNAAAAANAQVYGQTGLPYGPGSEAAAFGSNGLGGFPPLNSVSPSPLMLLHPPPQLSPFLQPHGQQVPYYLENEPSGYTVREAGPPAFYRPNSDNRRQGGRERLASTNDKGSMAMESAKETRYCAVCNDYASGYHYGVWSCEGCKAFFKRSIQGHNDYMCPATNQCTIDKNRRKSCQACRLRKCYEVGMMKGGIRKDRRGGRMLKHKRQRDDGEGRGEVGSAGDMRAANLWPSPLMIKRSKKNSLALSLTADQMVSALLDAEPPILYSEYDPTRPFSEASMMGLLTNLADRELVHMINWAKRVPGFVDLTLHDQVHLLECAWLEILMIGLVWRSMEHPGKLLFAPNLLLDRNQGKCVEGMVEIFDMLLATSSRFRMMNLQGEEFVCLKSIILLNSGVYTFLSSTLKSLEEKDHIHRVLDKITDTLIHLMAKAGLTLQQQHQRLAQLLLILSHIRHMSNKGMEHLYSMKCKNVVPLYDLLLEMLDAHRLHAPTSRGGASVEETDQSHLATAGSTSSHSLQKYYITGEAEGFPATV
PROCEDURE_TEXT: ERα coactivator recruitment enhancers – biochemical, TR-FRET, ERα LBD, dose response (AID 737)
Define the label as Met when EC50 is strictly less than 7 µM and as Not met in all remaining cases.

MOLECULE | CLASSIFICATION
CCc1[nH]nc2c1C(c1cccc(OC(=O)N3CCOCC3)c1)C(C#N)C(=N)O2 (stereo unspecified) | Met
Cc1ccc(-c2n[nH]c(=S)n2NC=CCc2ccccc2[N+](=O)[O-])cc1 | Met
CCOc1ccccc1C1c2c(-c3ccccc3)noc2N=C(N)C1C#N (stereo unspecified) | Not met
CCOc1ccc(Cc2sc(Nc3ccccn3)nc2O)cc1 | Not met
O=C1c2ccccc2C(=O)C1c1ccnc2ccccc12 | Met
CCn1c(=NC(=O)c2ccc(-n3c(O)ccc3O)cc2)sc2c(OC)ccc(OC)c21 | Not met
